Cited source for all entries: patent US20240376151A1

- system: RNF31 UBA domain (Homo sapiens, UniProt Q96EP0)
- Construct: RNF31 UBA domain protein (residues 480-639) with N-terminal Thioredoxin-TEV-6×his-yBBr-3C tags; Thioredoxin (N, cleaved yes); made in house; host or cells: E. coli BL21 (DE3) pLysS
- Sequence (Q96EP0 480-639): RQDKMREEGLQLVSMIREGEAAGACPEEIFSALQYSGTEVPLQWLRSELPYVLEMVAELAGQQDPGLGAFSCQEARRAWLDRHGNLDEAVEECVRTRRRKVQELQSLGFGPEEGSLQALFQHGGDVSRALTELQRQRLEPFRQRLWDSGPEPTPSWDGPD
- testSummary: Phage Library Screening with NGS, RNF31 UBA domain
- Format: binding
- measurementContext: Target Concentration 30; no competitor
Quick reference: phage screen NGS read-out at Target Concentration 30 of the listed items.
No unit in the answer, please; the number alone is enough.

Below, 8 sequences whose answers are already recorded.
DPAFSECVYAAIYCVHS ... 0
DPAEYHCDAAAVWCYLM ... 0
DPAFSQCVYAAWHCESL ... 0
DPADLLCHMAAQNCLYR ... 0
DPAQQICLSAAVFCSIF ... 0
DPAFSTCVYAAIICNDT ... 0
DPADYICYLAANNCLYH ... 1
DPAQRDCFSAAVYCSFL ... 210

From here, focus on the item given below.
Sample `DPAMYICEMAAANCLYQ` — what was its phage screen NGS read-out at Target Concentration 30?
1

* * *

- system: CDK2 (Homo sapiens, UniProt P24941)
- testSummary: Phage Library Screening with NGS, CDK2
- Format: binding
- Parameters: Full length CDK2 (residues 1-298) with an N-terminal GST-3C-6×his-TEV tag; GST-3C-6×his-TEV (N, cleaved yes); made in house; host or cells: Sf9 (Bac-to-Bac baculovirus)
- measurementContext: CDK2, target concentration 300
Numbered stars: 1 amine (or outer) side, 2 acyl side, 3 side chain; on linkers, the order of the positions; unused ones are H or OH. Bridge positions count the residues as written; N and C are the ends. Ends that are not written are not given here. Phenylene(1,4-NHCOCH2)2 = O=C(C[*:1])Nc1ccc(NC(=O)C[*:2])cc1
Everything with phage screen counts, Target Concentration 300 lower than 50 is NOT MET; everything else, including exactly 50, is MET.

Some entries whose results are on file:
DPAWWVCAVAAIECQEY (linker 7-14 via Phenylene(1,4-NHCOCH2)2 (inferred)) ... MET
WSCLSAYFSC (linker 3-10 via Phenylene(1,4-NHCOCH2)2 (inferred)) ... NOT MET
PTCLNAFFACE (linker 3-10 via Phenylene(1,4-NHCOCH2)2 (inferred)) ... NOT MET

phage screen counts, Target Concentration 300 >= 50 for CLDAFFACER (linker 1-8 via Phenylene(1,4-NHCOCH2)2 (inferred); not fully specified (C-terminus)) ?
NOT MET

phage screen counts, Target Concentration 300 >= 50 for PSCLSAFFSCY (linker 3-10 via Phenylene(1,4-NHCOCH2)2 (inferred)) ?
NOT MET

phage screen counts, Target Concentration 300 >= 50 for DPAWWVCAIAAMDCHEQ (linker 7-14 via Phenylene(1,4-NHCOCH2)2 (inferred)) ?
MET

phage screen counts, Target Concentration 300 >= 50 for DPAWWVCAIAAIECSDV (linker 7-14 via Phenylene(1,4-NHCOCH2)2 (inferred); not fully specified (N-terminus, C-terminus)) ?
MET

phage screen counts, Target Concentration 300 >= 50 for DPAWWTCIIAALECEEQ (linker 7-14 via Phenylene(1,4-NHCOCH2)2 (inferred)) ?
MET
